Test: H1N1 influenza NS1A inhibitors, functional cell based assay (AID 504329)
Details: percent inhibition, at 12.5 µM, active compounds read high
The campaign covered roughly 340,000 compounds. About 1,000 (0.29%) were called active. The list is a sample of the results. Potency and affinity values are given separately.
Measured quantity: inhibition (%)
Just the number please, in %, no unit attached.

>  <Compound>
C/C(=N\N=c1/sc2ccccc2n1C)c1ccc(N2CCOCC2)cc1

>  <inhibition, %>
-7.4

$$$$
>  <Compound>
Cc1cc([N+](=O)[O-])c(NCCCCCCO)c([N+](=O)[O-])c1

>  <inhibition, %>
11

$$$$

## Input // inhibition lookup, key: CC[n+]1c(/C=C(\C)SC)sc2ccccc21
## Output 3.81

## Input I would be grateful if you could share the reported inhibition for Cc1cc(C(=O)NC2CCCCCCC2)ccc1[N+](=O)[O-] .
## Output -15.4

## Input Value lookup for inhibition; key = CC/C(=C/c1sc2ccccc2[n+]1CC)SC
## Output -0.17

## Input I would be grateful if you could share the reported inhibition for CCOC(=O)N1CCC(=C(C#N)C(=O)Nc2cc(OC)ccc2OC)CC1 .
## Output 7.42

## Input So what does the record say about inhibition for CCCCCCNc1c([N+](=O)[O-])cc(C)cc1[N+](=O)[O-] ?
## Output 28.9

## Input Find the recorded inhibition belonging to N#Cc1cc(NC2CCCC2)c([N+](=O)[O-])cc1C#N and report it.
## Output 12.5

## Input Any idea what inhibition was measured for CC[n+]1c(/C=C(/C)SC)sc2ccccc21 ?
## Output -2.81

## Input Which inhibition reading was recorded for the compound CC[n+]1c(/C=C(\C)OC)sc2ccccc21 ?
## Output -2.73

## Input Requested read-out: inhibition. Entry: Cn1c(=Nc2ccc(N3CCOCC3)cc2)ccc2ccccc21
## Output -15.9

## Input Recorded inhibition for COc1ccc(NC(=O)CN(C)C(=O)C2CSC3(C)CCC(=O)N23)cc1 (configuration not stated) , please?
## Output -5.66

* * *

Test: H1N1 influenza NS1A inhibitors, functional cell based assay (AID 504329)
Conditions: percent inhibition, at 12.5 µM, active compounds read high
Among all 340,000 compounds or so, about 1,000 (0.29%) were called active. A selection follows. Potency and affinity values are given separately.
Each item that follows carries a reported inhibition.
Write down the numeric answer in % and omit the unit.

Reference set, count: 8
>  <Compound>
C[C@@H](NC(=O)Cn1cnc2c(NCc3ccccc3)ncnc21)c1cccc2ccccc12

>  <Measured quantity>
inhibition

>  <Unit spec>
%

>  <Observed measurement>
-9.17

$$$$
>  <Compound>
Cc1cc(N2CCN(C)CC2)nc(-c2ccccc2O)n1

>  <Measured quantity>
inhibition

>  <Unit spec>
%

>  <Observed measurement>
8.33

$$$$
>  <Compound>
Oc1cc(-c2ccc(N3CCCCC3)nc2)cc2cccnc12

>  <Measured quantity>
inhibition

>  <Unit spec>
%

>  <Observed measurement>
-0.13

$$$$
>  <Compound>
Cc1ccc(S(=O)(=O)NC2CCCCC2)c(C)c1NS(C)(=O)=O

>  <Measured quantity>
inhibition

>  <Unit spec>
%

>  <Observed measurement>
3.57

$$$$
>  <Compound>
COc1cc(/C=C2/C(=O)N(c3ccc(Br)cc3)N=C2C)cc(OC)c1OC

>  <Measured quantity>
inhibition

>  <Unit spec>
%

>  <Observed measurement>
3.78

$$$$
>  <Compound>
O=C1/C(=C\c2ccc(O)c(O)c2)C(c2ccccc2)=NN1c1ccccc1

>  <Measured quantity>
inhibition

>  <Unit spec>
%

>  <Observed measurement>
23.5

$$$$
>  <Compound>
CN1CCN(C(=O)c2ccc3nc(-c4ccccc4)c(-c4ccccc4)nc3c2)CC1

>  <Measured quantity>
inhibition

>  <Unit spec>
%

>  <Observed measurement>
-4.76

$$$$
>  <Compound>
COc1cc(/C=C2/C(=O)N(c3ccc(C(=O)O)cc3)N=C2C)cc(OC)c1O

>  <Measured quantity>
inhibition

>  <Unit spec>
%

>  <Observed measurement>
13.2

$$$$

## Input Item under review: O=C(NCc1ccco1)c1nn(-c2ccccc2)c(=O)c2ccccc12 . Reported inhibition?
## Output 0.06

## Input # inhibition lookup, item COc1cc(/C=C2\C(=O)N(c3ccc(NC(C)=O)cc3)N=C2c2ccccc2)ccc1O
## Output 12.5
